Where do the numbers come from? From the supplement of paper PMC9732359.

- protocolSummary: protein stability index of a GFP-peptide fusion (yeast GPS) (PSI 1-4); higher = more stable; sorted into four equal gates, so the index is relative within each strain
- testContext: pdr5∆
Please enter yes (1) where protein stability index is greater than or equal to 3, and no (0) where it is lower.

Reference set (2 entries):
HVKNFGFANSLTFILGQ [YML031W/NDC1]; no (0)
SIVLDSEHFDVNDNPDI [DIS3]; yes (1)

// query Textbook exercise: given the entry LKENEENEDGNIEERKE [BRR2] , state whether its protein stability index is greater than or equal to 3.
// result yes (1)

// query Textbook exercise: given the entry NKASLAQYEVLANYLTS [QCR2] , state whether its protein stability index is greater than or equal to 3.
// result no (0)

###

- protocolSummary: protein stability index of a GFP-peptide fusion (yeast GPS) (PSI 1-4); higher = more stable; sorted into four equal gates, so the index is relative within each strain
- testContext: doa10∆
assayReadout: protein stability index
Give the figure by itself; no unit, no explanation.

Recorded protein stability index, per entry:
SSTDEESWFKALAGSEI [FAS1]; 3.32
EVAIRDVNLDVRIHSIQ [IRR1]; 2.4
TLKLQDTRITPSKVSKI [PRE6]; 2.53
NLSVTSPYNADFDGDEM [RPO21]; 2.83
SHEERIEAIDEYNKPNS [ISW2]; 2.01
SKLSEHLNHYILLRYHH [YCG1]; 2.16
KRPYESSRLDAELKLAG [RPS9A]; 3.24
VRHGRAGATTSRFIPLK [RPS15]; 2.62
LNNTHVISSGPLAAGNF [RPC53]; 2.74
DSTLILEQLAQHTTESD [RPB2]; 2.17

// query Please report the recorded protein stability index for DELRKQELISKAFTNWN [ISW2] .
// result 2.04

// query Please report the recorded protein stability index for LENKADPLVSLMMVEKV [RPT6] .
// result 2.12

// query Please report the recorded protein stability index for DDQLKQRRQNIRDLEKL [RPT4] .
// result 2.81

// query Please report the recorded protein stability index for TLLREVVFTRLVQRCWQ [CSN12] .
// result 1.4

// query Please report the recorded protein stability index for DHINWEHIKQDYVASLN [NSL1] .
// result 3.12

###

- protocolSummary: protein stability index of a GFP-peptide fusion (yeast GPS) (PSI 1-4); higher = more stable; sorted into four equal gates, so the index is relative within each strain
- testContext: ubr1∆
Please enter Fulfilled where protein stability index is greater than or equal to 3, and Not fulfilled where it is lower.

Reference set (4 entries):
VTLNKYCSGNIYDFHKM [YJL039C/NUP192]; Not fulfilled
DKLSVSEISDGKLKRCS [SIN4]; Fulfilled
GELRSYLKGATGHSQGL [FAS1]; Fulfilled
FSIFNYFKMFPASKHDK [RPC34]; Not fulfilled

// next entry
// query Textbook exercise: given the entry CVAAWGVCNHAFHLHCI [HRT1] , state whether its protein stability index is greater than or equal to 3.
// result Not fulfilled

###

- protocolSummary: protein stability index of a GFP-peptide fusion (yeast GPS) (PSI 1-4); higher = more stable; sorted into four equal gates, so the index is relative within each strain
- testContext: san1∆
assayReadout: protein stability index
Give the figure by itself; no unit, no explanation.

AETTFLQDVIALSIADD [RPC53]; 1.97
SFCGFLLYYIPSLELSA [YJR042W/NUP85]; 1.57

// query Please report the recorded protein stability index for SEVRKAVSIETALEHKV [FAS2] .
// result 1.35

// query Please report the recorded protein stability index for MQSTSPAVKQWDLLPEP [SWI1] .
// result 1.36

// query Please report the recorded protein stability index for TPISNEQTEGEPKKKRG [SRP68] .
// result 3.27

// query Please report the recorded protein stability index for QFNAQGVRDINCVNDVL [POP1] .
// result 2.91

// query Please report the recorded protein stability index for WRKSDRELTKNILWRIA [SIR4] .
// result 2.09

###

- protocolSummary: protein stability index of a GFP-peptide fusion (yeast GPS) (PSI 1-4); higher = more stable; sorted into four equal gates, so the index is relative within each strain
- testContext: doa10∆
Please enter criterion met where protein stability index is greater than or equal to 3, and criterion not met where it is lower.

Reference set (5 entries):
DIIWLQRDLGLYVVGLF [RRP6]; criterion not met
QGGVLPNIHQNLLPKKS [HTA1]; criterion not met
YIESKFCPGEIVGKSNV [YMR129W/POM152]; criterion not met
DAKSTPLRLRLYDNFVS [RPN9]; criterion met
RKVEKEKNEKEREIKRR [UBP6]; criterion met

// query Textbook exercise: given the entry RVFNAKDTTGPKAISNF [YCS4] , state whether its protein stability index is greater than or equal to 3.
// result criterion not met

// query Textbook exercise: given the entry EELKNMFLYILKHLEEM [RRI2] , state whether its protein stability index is greater than or equal to 3.
// result criterion not met

// query Textbook exercise: given the entry DKYHEQWIKFLLHTLYL [SSN8] , state whether its protein stability index is greater than or equal to 3.
// result criterion not met

// query Textbook exercise: given the entry SMVLFFVCLSCSHIFTS [RPB9] , state whether its protein stability index is greater than or equal to 3.
// result criterion not met

// query Textbook exercise: given the entry DQLDSEAASITRKSLNN [ECM29] , state whether its protein stability index is greater than or equal to 3.
// result criterion not met

// query Textbook exercise: given the entry TEDRYNEYVAKVSAREK [FAS2] , state whether its protein stability index is greater than or equal to 3.
// result criterion met

// query Textbook exercise: given the entry LHVEQLSGGQKTVCAIA [SMC3] , state whether its protein stability index is greater than or equal to 3.
// result criterion not met

// query Textbook exercise: given the entry DYLKNIIVENSGTSGDE [RPN2] , state whether its protein stability index is greater than or equal to 3.
// result criterion met

// query Textbook exercise: given the entry ISIDSWPTTHKYPLGHF [DIS3] , state whether its protein stability index is greater than or equal to 3.
// result criterion not met

// query Textbook exercise: given the entry PIGRDGKLAKPRQLHNT [RPB2] , state whether its protein stability index is greater than or equal to 3.
// result criterion not met

// query Textbook exercise: given the entry SQIIARNEEILRDIGEC [SMC2] , state whether its protein stability index is greater than or equal to 3.
// result criterion not met

// query Textbook exercise: given the entry LIAEETNNKKLLEKANN [SMC3] , state whether its protein stability index is greater than or equal to 3.
// result criterion not met

###

- protocolSummary: protein stability index of a GFP-peptide fusion (yeast GPS) (PSI 1-4); higher = more stable; sorted into four equal gates, so the index is relative within each strain
- testContext: san1∆
Measured protein stability index by item
Give the figure by itself; no unit, no explanation.

RDDALVVETITSLLNKV [RRP42]; 3.1
YFLKVTFLKYFGWLLSD [IRR1]; 1.88

// query Please report the recorded protein stability index for DGAYALSASWDKTLRLW [ASC1] .
// result 3.18

// query Please report the recorded protein stability index for LVALSNEPAARLGSEAD [FAS2] .
// result 3.45

// query Please report the recorded protein stability index for LKEERAIEPETFTQLVS [PUP3] .
// result 2.94

###

- protocolSummary: protein stability index of a GFP-peptide fusion (yeast GPS) (PSI 1-4); higher = more stable; sorted into four equal gates, so the index is relative within each strain
- testContext: san1∆
Please enter y where protein stability index is greater than or equal to 3, and n where it is lower.

Reference set (10 entries):
TLGKLSTSVGWKYEDVV [RPL16B]; n
VNCLELLINTNFNKFFK [PCI8]; n
RAASIRARVKAFPKDDR [RPL3]; n
SFALPFEEDEKNSDVWF [RPN8]; y
GPANNPNEFMQFKSKEV [PRP8]; y
LKVYKVGDIVDIKANGS [RPL21A]; n
PNFLGNCNIKDFKPPYI [SWP82]; n
TPNMVNSEISNLPKDKS [SSN2]; n
SVFYTILRDYGPQEAAN [RPO31]; y
YGNDEEVLFYEDNYNPK [RPN4]; y

// query Textbook exercise: given the entry EGLELLGWIHTQTEELK [PRP8] , state whether its protein stability index is greater than or equal to 3.
// result y

// query Textbook exercise: given the entry HKSLIRSISWAPSIGRW [YGL100W/SEH1] , state whether its protein stability index is greater than or equal to 3.
// result n

// query Textbook exercise: given the entry NAGPNSNIPNLLRNLES [YDL088C/ASM4] , state whether its protein stability index is greater than or equal to 3.
// result n
